Target: polypeptide SEQ ID NO: 8 in which X1, X2, X3 and X4 each represents a lysine (Mus musculus, UniProt O09114)
Construct: made in house; host or cells: chemical peptide synthesis (Fmoc)
Sequence (O09114 148-173 limits assumed): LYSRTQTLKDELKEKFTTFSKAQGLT
Assay: HPLC test of % fixing of test compound on polypeptide
Type: binding
Details: Example 3; twice 0.5 mM polypeptide, 5 mM test compound, TRIS-HCl pH 8.8
result_type: fixing, SEQ ID NO: 8 (X1-X4 lysine), pH 8.8 (%)

> print(dat)
                                   compound  measured.result
1            O=CCCCC=O [GA, glutaraldehyde]              100
2  CC(O)C(=O)O (centres unmarked) [LA, lactic acid]                0
3  O=c1[nH]sc2ccccc12 [Ben, 1,2-benzisothiazolin-3-one]              100
4       Oc1ccc(O)cc1 [HQ, 1,4-hydroquinone]              100
5     O=CCc1ccccc1 [PA, phenylacetaldehyde]                0

----------
target: polypeptide SEQ ID NO: 8 in which X1, X2, X3 and X4 each represents a lysine (Mus musculus); construct: made in house; host or cells: chemical peptide synthesis (Fmoc); assay: HPLC test of % fixing of test compound on polypeptide; format: binding; conditions: Example 3; twice 0.5 mM polypeptide (SEQ ID NO: 19 and 8), 5 mM test compound, TRIS-HCl pH 8.3; 'Fixing' = fixing exists but not quantifiable
result_type: fixing, SEQ ID NO: 8 (X1-X4 lysine), pH 8.3 (%)

> print(dat)
                                   compound  measured.result
1            O=CCCCC=O [GA, glutaraldehyde]               50
2  CC(O)C(=O)O (stereo not drawn) [LA, lactic acid]                0
3  O=c1[nH]sc2ccccc12 [Ben, 1,2-benzisothiazolin-3-one]              100
4       Oc1ccc(O)cc1 [HQ, 1,4-hydroquinone]              100
5  CC(C=O)Cc1ccc(C(C)(C)C)cc1 (stereo not drawn) [Li, lilial]                0

----------
Molecular target: polypeptide SEQ ID NO: 8 in which X1, X2, X3 and X4 each represents a lysine (Mus musculus, UniProt O09114)
Construct: made in house; host or cells: chemical peptide synthesis (Fmoc)
Sequence (O09114 148-173 limits assumed): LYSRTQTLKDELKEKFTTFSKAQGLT
Test: HPLC test of % fixing of test compound on polypeptide
Assay type: binding
Details: Example 5; twice 0.5 mM polypeptide, 5 mM test compound, TRIS-HCl 100 mM; 'Fixing' = not quantifiable
Lab note: compare % fixing, SEQ ID NO: 8 (X1-X4 lysine) against 6%. Equal or greater, write fulfilled. Smaller, write not fulfilled.

> print(dat)
                                   molecule          class
1  CCCCCCCCCCCCOC(=O)c1cc(O)c(O)c(O)c1 [LG, lauryl gallate]      fulfilled
2          CC(C)=CCCC(C)=CC=O [Cal, citral]      fulfilled
3       Oc1ccc(O)cc1 [HQ, 1,4-hydroquinone]      fulfilled
4           Clc1ccccc1 [Cbz, chlorobenzene]  not fulfilled
5  CC(C=O)Cc1ccc(C(C)(C)C)cc1 (stereo not shown) [Li, lilial]  not fulfilled
6  O=C/C=C/c1ccccc1 [CA, cinnamic aldehyde]      fulfilled
7  CC(O)C(=O)O (stereo not shown) [LA, lactic acid]  not fulfilled
8            O=CCCCC=O [GA, glutaraldehyde]      fulfilled

----------
Tested on: polypeptide of sequence SEQ ID NO: 19 (Ac-RFAACAA-NH2)
Test: HPLC test of % fixing of test compound on polypeptide (positive control peptide)
Type: binding
Details: Example 5; twice 0.5 mM polypeptide, 5 mM test compound, TRIS-HCl 100 mM
Method: A test with 0.5 mM of polypeptide and 5 mM of test compound is carried out under the following conditions: […]
result_type: % fixing, SEQ ID NO: 19 (%)

> print(dat)
                                    compound  measured.result
 1                        CC(C)=CCCC(C)=CC=O               46
 2                                Clc1ccccc1                0
 3                                 O=CCCCC=O               33
 4                                 CN(C)CCCN               15
 5               O=c1c(-c2ccccc2)c1-c1ccccc1              100
 6            CC(O)C(=O)O (centres unmarked)                0
 7  CCCCCCCCCCCCOC(=O)c1cc(O)c(O)c(O)c1 [LG, lauryl gallate]              100
 8  CC(C=O)Cc1ccc(C(C)(C)C)cc1 (centres unmarked)               18
 9       Oc1ccc(O)cc1 [HQ, 1,4-hydroquinone]               90
10                              O=CCc1ccccc1               81
11                        O=c1[nH]sc2ccccc12               90

----------
Biological target: polypeptide SEQ ID NO: 8 in which X1, X2, X3 and X4 each represents a lysine (Mus musculus)
Construct: made in house; host or cells: chemical peptide synthesis (Fmoc)
Sequence (O09114 148-173 limits assumed): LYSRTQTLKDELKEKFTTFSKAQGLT
Test: HPLC test of % fixing of test compound on polypeptide
Type: binding
Conditions: Example 3; twice 0.5 mM polypeptide, 5 mM test compound, TRIS-HCl pH 9.2; 'Fixing' = fixing exists but not quantifiable
Listed compounds paired with reported fixing, SEQ ID NO: 8 (X1-X4 lysine), pH 9.2
result_type: fixing, SEQ ID NO: 8 (X1-X4 lysine), pH 9.2 (%)

> print(dat)
                         compound  measured.result
1  CC(O)C(=O)O (centres unmarked)                0
2              O=c1[nH]sc2ccccc12                0
3                    O=CCc1ccccc1               21
4                       O=CCCCC=O               50

----------
Test system: polypeptide of sequence SEQ ID NO: 19 (Ac-RFAACAA-NH2)
Test: HPLC test of % fixing of test compound on polypeptide (positive control peptide)
Type: binding
Settings: Example 4; twice 0.5 mM polypeptide, 5 mM test compound, TRIS-HCl 100 mM
Method: A test with 0.5 mM of polypeptide and 5 mM of test compound is carried out under the following conditions: […]
result_type: % fixing (mean), SEQ ID NO: 19 (%)

> print(dat)
                                    compound                     result.type  measured.result
 1  CCCCCCCCCCCCOC(=O)c1cc(O)c(O)c(O)c1 [LG, lauryl gallate]  % fixing (mean), SEQ ID NO: 19              100
 2            O=CCCCC=O [GA, glutaraldehyde]  % fixing (mean), SEQ ID NO: 19               33
 3     O=CCc1ccccc1 [PA, phenylacetaldehyde]  % fixing (mean), SEQ ID NO: 19               81
 4           Clc1ccccc1 [Cbz, chlorobenzene]  % fixing (mean), SEQ ID NO: 19                0
 5  CN(C)CCCN [3-DMAPA, 3-3-dimethylaminopropylamine]  % fixing (mean), SEQ ID NO: 19               15
 6  CC(C=O)Cc1ccc(C(C)(C)C)cc1 (centres unmarked) [Li, lilial]  % fixing (mean), SEQ ID NO: 19               18
 7       Oc1ccc(O)cc1 [HQ, 1,4-hydroquinone]  % fixing (mean), SEQ ID NO: 19               90
 8  O=c1[nH]sc2ccccc12 [Ben, 1,2-benzisothiazolin-3-one]  % fixing (mean), SEQ ID NO: 19               90
 9  O=c1c(-c2ccccc2)c1-c1ccccc1 [DPCP, diphenylcyclopropenone]  % fixing (mean), SEQ ID NO: 19              100
10          CC(C)=CCCC(C)=CC=O [Cal, citral]  % fixing (mean), SEQ ID NO: 19               46
11  CC(O)C(=O)O (centres unmarked) [LA, lactic acid]  % fixing (mean), SEQ ID NO: 19                0
